- system: hα2B receptor (Homo sapiens)
- Construct: expressed in transfected cells
- Sequence (P18089 whole entry): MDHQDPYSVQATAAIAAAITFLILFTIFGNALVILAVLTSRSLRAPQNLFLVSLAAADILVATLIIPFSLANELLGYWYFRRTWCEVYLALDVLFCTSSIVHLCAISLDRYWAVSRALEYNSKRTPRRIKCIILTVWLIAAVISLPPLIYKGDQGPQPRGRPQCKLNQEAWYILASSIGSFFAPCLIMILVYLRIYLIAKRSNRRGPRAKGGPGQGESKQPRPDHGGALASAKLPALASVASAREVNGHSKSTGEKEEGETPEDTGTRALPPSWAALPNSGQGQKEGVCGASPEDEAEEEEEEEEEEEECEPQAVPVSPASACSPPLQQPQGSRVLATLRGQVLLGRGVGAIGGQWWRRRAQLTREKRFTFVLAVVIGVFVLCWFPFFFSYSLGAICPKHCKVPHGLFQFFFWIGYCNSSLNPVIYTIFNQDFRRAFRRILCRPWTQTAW
- assayRemarks: Radioligand binding experiment for hα2B receptor ([3H]-raulwolscine)
- measurementSetup: membranes of CHO cells expressing human α2B receptor; [3H]raulwolscine 1 nM
measuredParameter: hα2B pIC50
I'd appreciate a reply containing only the number, no unit.

In: Requested field: hα2B pIC50. Item: COc1cc2c(cc1OC)C1=NOC(CN3CCN(CC=Cc4cccc(F)c4)CC3)C1CN2 (centres unmarked)
Out: 8.16

###

Item-by-item account of log10 IC50
- system: hα2C receptor (Homo sapiens)
- Construct: expressed in transfected cells
- Sequence (P18825 whole entry): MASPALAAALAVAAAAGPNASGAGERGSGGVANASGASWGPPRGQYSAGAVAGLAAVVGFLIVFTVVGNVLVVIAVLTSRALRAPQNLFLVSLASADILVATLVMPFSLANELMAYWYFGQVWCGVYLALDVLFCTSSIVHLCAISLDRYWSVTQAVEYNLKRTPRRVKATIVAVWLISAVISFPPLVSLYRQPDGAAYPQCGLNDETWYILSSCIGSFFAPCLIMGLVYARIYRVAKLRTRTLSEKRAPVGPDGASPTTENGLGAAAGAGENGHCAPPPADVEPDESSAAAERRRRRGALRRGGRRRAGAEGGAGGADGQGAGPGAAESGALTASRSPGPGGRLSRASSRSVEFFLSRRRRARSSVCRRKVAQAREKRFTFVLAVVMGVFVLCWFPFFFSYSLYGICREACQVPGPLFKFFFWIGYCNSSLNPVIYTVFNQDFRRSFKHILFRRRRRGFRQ
- assayRemarks: Radioligand binding experiment for hα2C receptor ([3H]-raulwolscine)
- measurementSetup: membranes of CHO cells expressing human α2C receptor; [3H]raulwolscine 1 nM; read-out: hα2C pIC50 (converted)
Values are log10 of IC50 in nM.

Examples from the recorded data:
INSERT INTO results (compound, resultnumber) VALUES
  ('COc1cc2c(cc1OC)C1=NOC(CN3CCN(Cc4ccc5ccccc5c4)CC3)C1CN2 (centres unmarked) [Compound 272]', 2.13),
  ('COc1cc2c(cc1OC)C1=NOC(CN3CCN(CC=C(C)c4ccccc4)CC3)C1CN2 (centres unmarked) [Compound 379]', 1.61),
  ('COc1ccc2c(c1)CCC1C2=NOC1CN1CCN(CC=Cc2ccccc2)CC1 (centres unmarked) [Comp 220]', 1.64),
  ('COc1ccc2c(c1)C1=NOC(CN3CCN(CC(C)=Cc4ccccc4)CC3)C1CO2 (centres unmarked) [Compound 348]', 0.12),
  ('COc1cc2c(cc1OC)C1=NOC(CN3CCN(Cc4ccc5cc(F)ccc5c4)CC3)C1CO2 (centres unmarked) [Compound 76]', 1.40);

In: Requested field: log10 IC50. Item: COc1cc2c(cc1OC)C1=NOC(CN3CCN(C/C=C(\C)c4ccsc4)CC3)C1CO2 (single isomer, unassigned) [Compound 323]
Out: 0.98

In: Requested field: log10 IC50. Item: COc1cc2c(cc1OC)C1=NOC(CN3CCN(CC(C)Oc4cccc(F)c4)CC3)C1CO2 (centres unmarked) [Compound 27]
Out: 0.19

In: Requested field: log10 IC50. Item: COc1cc2c(cc1OC)C1=NOC(CN3CCN(Cc4cc5ccccc5o4)CC3)C1CO2 (centres unmarked) [Compound 54]
Out: 1.56

In: Requested field: log10 IC50. Item: Oc1ccc2c(c1)OCC1C2=NOC1CN1CCN(Cc2ccc3ccccc3c2)CC1 (centres unmarked) [Compound 268]
Out: 0.95

In: Requested field: log10 IC50. Item: COc1cc2c(cc1OC)C1=NOC(CN3CCN(CC(Br)=Cc4ccccc4)CC3)C1CO2 (centres unmarked) [Compound 143]
Out: 1.37

In: Requested field: log10 IC50. Item: COc1cc2c(cc1OC)C1=NOC(CN3CCN(CCOc4ccc(F)cc4)CC3)C1CO2 (centres unmarked) [Compound 48]
Out: 0.64

In: Requested field: log10 IC50. Item: COc1cc2c(cc1OC)C1=NOC(CN3CCN(CC4=Cc5ccccc5CC4)CC3)C1CO2 (centres unmarked) [Compound 21]
Out: 0.02

In: Requested field: log10 IC50. Item: COc1cc2c(cc1OC)C1=NOC(CN3CCN(Cc4ccsc4)CC3)C1CO2 (centres unmarked) [Compound 300]
Out: 2.80

In: Requested field: log10 IC50. Item: COc1cc2c(cc1OC)C1=NOC(CN3CCN(CC(C)=Cc4cccc5ccccc45)CC3)C1CO2 (centres unmarked) [Compound 157]
Out: 1.87

In: Requested field: log10 IC50. Item: COCCOCOc1ccc2c(c1)OCC1C2=NOC1CN1CCN(Cc2ccc3ccccc3c2)CC1 (centres unmarked) [Compound 267]
Out: 0.45

In: Requested field: log10 IC50. Item: COc1cc2c(cc1OC)C1=NOC(CN3CCN(Cc4cccn4C)CC3)C1CO2 (centres unmarked) [Compound 291]
Out: 3.00

In: Requested field: log10 IC50. Item: c1ccc2c(c1)NCC1C2=NOC1CN1CCN(Cc2ccc3ccccc3c2)CC1 (centres unmarked) [Compound 9]
Out: 2.03
